We begin with a simple list: items and their reported T/C.
- System: P388 leukemia ip, CD2F1 mice, survival T/C
- MEASUREMENT_PROTOCOL: NCI In Vivo Anticancer Drug Screen. Data for tumor model P388 Leukemia (intraperitoneal) in CD2F1 (CDF1) mice
- ASSAY_CONDITIONS: endpoint: median survival time; dose: 100.0 mg/kg/injection; schedule: Q01DX005 (ip); vehicle: saline with Tween-80; higher = longer survival
Toxic doses and inconclusive results are not listed. Peptide text beside a SMILES is read from it.
METRIC_NAME: T/C

molecule=Cc1ccc(S(=O)(=O)Nc2nnc(-c3coc4ccc(C)cc4c3=O)s2)cc1 reported="88 % of control"
molecule="CN=C1NC(=O)C(c2ccccc2)S1 (configuration not stated)" reported="99 % of control"
molecule=CC(C)=C(C#C[Si](C)(C)C)OS(=O)(=O)C(F)(F)F reported="101 % of control"
molecule="COC(=O)C(Cc1ccccc1)NC(=O)C(CC(C)C)NC(=O)C(CC(C)C)NC(=O)C(N)CC(C)C (configuration not stated) (H-LLLF-OMe; configuration not given here)" reported="104 % of control"
molecule="NC(CCC(=O)NC(CS)C(=O)NCC(=O)O)C(=O)O.[CH2-]CCC.[CH2-]CCC.[CH2-]CCC.[CH2-]CCC.[Ti+4] (configuration not stated)" reported="89 % of control"
molecule="COC(=O)C1CCCN1C(=O)c1ccccc1 (configuration not stated)" reported="93 % of control"
molecule=c1ccc(Nc2nnnn2-c2ccccc2)cc1 reported="104 % of control"
molecule="CN(C)C1C(=O)C(C(=O)NCN2CCCC2)=C(O)C2(O)C(=O)C3=C(O)c4c(O)cccc4C(C)(O)C3CC12 (configuration not stated)" reported="95 % of control"
molecule="Nc1nc2c(nnn2C2OC(CO)C(O)C2O)c(=O)[nH]1 (configuration not stated)" reported="101 % of control"
molecule=c1ccc(-c2nc3ccccc3c3ccccc23)cc1 reported="113 % of control"
molecule=N#CC1=C(O)/C(=C\c2ccc(Cl)c(Cl)c2)N=C1N reported="90 % of control"
molecule="CN1CCC(O)(c2ccccc2)C(O)C1 (configuration not stated)" reported="93 % of control"

* * *

- Test system: P388 leukemia ip, CD2F1 mice, survival T/C
- MEASUREMENT_PROTOCOL: NCI In Vivo Anticancer Drug Screen. Data for tumor model P388 Leukemia (intraperitoneal) in CD2F1 (CDF1) mice
- ASSAY_CONDITIONS: endpoint: median survival time; dose: 50.0 mg/kg/injection; schedule: Q04DX003 (ip); vehicle: saline; higher = longer survival
Inconclusive results and toxic doses are left out.
METRIC_NAME: T/C

compound=CC(=O)C1=CN(Cc2ccccc2)C=C(C(C)C)C1 reported="98 % of control"
compound=Cc1ccc(Cl)cc1S reported="95 % of control"
compound="O=C1SCCC1CO (configuration not stated)" reported="106 % of control"
compound=CC(C)N(CCCOC(=O)c1ccc(N)cc1)C(C)C reported="91 % of control"
compound="O=[N+]([O-])c1cccc(C(O)C=C(C(F)(F)F)C(F)(F)F)c1 (configuration not stated)" reported="95 % of control"
compound=Cc1cc2ccccc2c[n+]1C reported="100 % of control"
compound="CCC(C)N(CCCOC(=O)c1ccc(N)cc1)C(C)CC (configuration not stated)" reported="91 % of control"

* * *

// T/C lookup, one value per entry
- Tested on: P388 leukemia ip, CD2F1 mice, survival T/C
- MEASUREMENT_PROTOCOL: NCI In Vivo Anticancer Drug Screen. Data for tumor model P388 Leukemia (intraperitoneal) in CD2F1 (CDF1) mice
- ASSAY_CONDITIONS: endpoint: median survival time; dose: 25.0 mg/kg/injection; schedule: Q01DX005 (ip); vehicle: saline with Tween-80; higher = longer survival
- Method: The antitumor activity of compounds was measured in mice bearing transplantable tumors. Survival or tumor size were measured and the results are expressed as the measurement made in the treated group (T) divided by the measurement made in the vehicle treated control group (C). The tumor model used in this assay is P388 Leukemia (intraperitoneal) in CD2F1 (CDF1) mice
Inconclusive results and toxic doses are left out.
METRIC_NAME: T/C

molecule=O=c1oc2ccccc2n1Cc1ccc(Cl)cc1 system_under_test="P388 leukemia ip, CD2F1 mice, survival T/C" reported="99 % of control"
molecule=CCOC(=O)Cc1c(C)noc1OC system_under_test="P388 leukemia ip, CD2F1 mice, survival T/C" reported="106 % of control"
molecule="CC(C)(C)OC(=O)NC(CC(Cc1ccccc1)C(=O)O)C(=O)NC(CC(Cc1ccccc1)C(=O)O)C(=O)NC(CC(Cc1ccccc1)C(=O)O)C(=O)NCC(=O)Oc1ccc([N+](=O)[O-])cc1 (stereo not drawn)" system_under_test="P388 leukemia ip, CD2F1 mice, survival T/C" reported="91 % of control"
molecule="N#CC1SC(C#N)C(c2ccc(Cl)cc2)OC1c1ccc(Cl)cc1 (stereo not drawn)" system_under_test="P388 leukemia ip, CD2F1 mice, survival T/C" reported="90 % of control"
molecule=CCOC(=O)CSc1cc(O)c2ccccc2c1N=Nc1ccc(C(=O)O)cc1 system_under_test="P388 leukemia ip, CD2F1 mice, survival T/C" reported="88 % of control"
molecule=COc1cc2cc3c(c(O)c2c(OC)c1OC)C(=O)CC(C)(C)C3 system_under_test="P388 leukemia ip, CD2F1 mice, survival T/C" reported="101 % of control"
molecule=CC(C)(C)SSC(=S)C1CCCCC1 system_under_test="P388 leukemia ip, CD2F1 mice, survival T/C" reported="108 % of control"
molecule=CC(=O)Nc1nnc(-c2coc3ccc(C)cc3c2=O)s1 system_under_test="P388 leukemia ip, CD2F1 mice, survival T/C" reported="86 % of control"

* * *

- Tested on: P388 leukemia ip, CD2F1 mice, survival T/C
- MEASUREMENT_PROTOCOL: NCI In Vivo Anticancer Drug Screen. Data for tumor model P388 Leukemia (intraperitoneal) in CD2F1 (CDF1) mice
- ASSAY_CONDITIONS: endpoint: median survival time; dose: 50.0 mg/kg/injection; schedule: Q01DX009 (ip); vehicle: saline with Tween-80; higher = longer survival
Toxic doses and inconclusive results are not listed.
A collection of molecules and their measured T/C
METRIC_NAME: T/C

molecule=N/C(=N\S(=O)(=O)c1cc(C(F)(F)F)cc(C(F)(F)F)c1)c1ccncc1 metric_name=T/C reported="86 % of control"
molecule="CC1=NN(C(=O)c2ccncc2)C(=O)C1N=Nc1ccc2ccccc2c1 (configuration not stated)" metric_name=T/C reported="101 % of control"
molecule=c1ccc2c(c1)CN1Cc3ccccc3C2C1 metric_name=T/C reported="99 % of control"
molecule=CN(C)c1ccc(/C=C/c2ccc3ccccc3n2)cc1 metric_name=T/C reported="100 % of control"
molecule=O=C(O)CCc1nc(-c2ccccc2-n2cccc2)no1 metric_name=T/C reported="96 % of control"
molecule=CS[C@@H]1C[C@H]2[C@@H]3CCC4=CC(=O)CC[C@]4(C)[C@H]3CC[C@]2(C)[C@H]1C(C)=O metric_name=T/C reported="100 % of control"
molecule=CCN(CC)c1cc(Cl)ccc1Cl metric_name=T/C reported="104 % of control"
molecule=O=C(O)c1cc(-c2ccccc2)[nH]c1-c1ccccc1 metric_name=T/C reported="90 % of control"
molecule="CC1(OC(=O)c2ccccc2)CC2(CCCCC2)N=N1 (configuration not stated)" metric_name=T/C reported="112 % of control"
molecule=O=S(=O)(O)CNc1ccc(Cl)cc1 metric_name=T/C reported="113 % of control"
molecule=COc1ccc(NC(Cc2ccccc2)=NC(C)(C)C)cc1 metric_name=T/C reported="98 % of control"
molecule="O=C(OCC1CC=CCC1CCl)c1ccccc1 (configuration not stated)" metric_name=T/C reported="96 % of control"

* * *

# T/C values compiled below
- System: P388 leukemia ip, CD2F1 mice, survival T/C
- MEASUREMENT_PROTOCOL: NCI In Vivo Anticancer Drug Screen. Data for tumor model P388 Leukemia (intraperitoneal) in CD2F1 (CDF1) mice
- ASSAY_CONDITIONS: endpoint: median survival time; dose: 50.0 mg/kg/injection; schedule: Q01DX009 (ip); vehicle: Klucel (hydroxypropylcellulose) (HPC); higher = longer survival
Toxic doses and inconclusive results are not listed.
METRIC_NAME: T/C

molecule=O=C1c2ccccc2-c2n[nH]c3cccc1c23 reported="101 % of control"
molecule="CCN1C(=O)C(N2CCCCC2)S/C1=C\\C(=O)O (centres undefined)" reported="97 % of control"
molecule=CCN(CC)Cc1c(C)[nH]c2c(ccc3c2ccc2c(=O)c(CN(CC)CC)c(C)[nH]c23)c1=O reported="93 % of control"
molecule="CCCCCCCCCCCCCCCCCCOCC(O)CN(CCO)CCO (centres undefined)" reported="96 % of control"
molecule=CCCCCCCCN1CCS(=O)(=O)CC1 reported="89 % of control"
molecule=O=C1C(Cl)=C(NCCO)C(=O)c2ccccc21 reported="106 % of control"
molecule=CC(C)OCCCN(Cn1c(=S)sc2ccccc21)Cn1c(=S)sc2ccccc21 reported="91 % of control"
molecule=FC(F)(F)C1(C(F)(F)F)[O][Sb]([c]2ccc(Cl)cc2)([c]2ccc(Cl)cc2)([c]2ccc(Cl)cc2)[O]1 reported="103 % of control"
molecule=Cc1cccc(NC(=O)CS)n1 reported="95 % of control"
molecule=Cn1c(N)c(-n2[nH]c(=O)n(-c3ccccc3)c2=O)c(=O)n(C)c1=O reported="106 % of control"
molecule=CCCCC(=O)C(=O)c1ccc(O)cc1O reported="116 % of control"
molecule=CN(C)C(=O)ONC(=O)c1ccccc1 reported="105 % of control"
molecule=Nc1n[nH]c(N)c1N=Nc1ccccc1 reported="98 % of control"
molecule=S=c1[nH]c2ccc(Cl)cc2s1 reported="98 % of control"
molecule=COc1ccc(-c2cncnc2N)cc1OC reported="95 % of control"
molecule="CC(Cl)CN(CC(C)Cl)C(=O)Oc1ccc(CC(N)C(=O)O)cc1 (centres undefined)" reported="91 % of control"
molecule=NC(=O)c1ccc[n+](Cc2ccccc2)c1 reported="112 % of control"
molecule=CC1(C)Cc2oc(=O)n(-c3ccccc3)c(=O)c2C1 reported="100 % of control"
molecule=O=C(NC(=O)c1ccccc1F)Nc1ccc(C(F)(F)F)cc1 reported="102 % of control"
molecule=Nc1nc(-c2ccccc2N=NN2CCCCC2)nc2ccccc12 reported="104 % of control"
molecule="Cn1c(N2CCN(CCO)CC2)nc2c1c(=O)n(CC(O)CN1CCN(CCO)CC1)c(=O)n2C (centres undefined)" reported="89 % of control"
molecule=CCCCCCC(/C=C/c1ccc(Cl)c(Cl)c1)=N\Nc1c(Cl)cccc1Cl reported="91 % of control"
molecule=CCOC(=O)/C(=C\Nc1cccc(OCc2ccccc2)c1)NC(=O)c1ccccc1 reported="87 % of control"
molecule=C/C(CC/C(C)=N/N=C(\N)c1ccccn1)=N\N=C(/N)c1ccccn1 reported="99 % of control"
